The origin of these recorded values is patent US10632127B2.

Assay: Pharmacokinetic assessment in male Wistar rats (i.v.)
Format: in vivo, rat
Details: rat, kidney, iv, 8 3.5 mg/kg i.v., 1.25 h, read-out: Kidney concentration of 8
Test Readout: concentration at 1.25 h

stdin: Reported concentration at 1.25 h for C[C@H]1Oc2ccc(F)cc2N(CCO)C(=O)[C@H]1NC(=O)[C@@](C)(O)C(=O)NCC(F)(F)C(F)(F)F : what is it?
stdout: 844 ng/g

---

Experiment: Pharmacokinetic assessment in male Wistar rats (i.v.)
Format: in vivo, rat
Details: rat, plasma, iv, 8 3.5 mg/kg i.v., 1.25 h, read-out: Plasma concentration of 8
Test Readout: concentration at 1.25 h (ng/mL)
Give just the numeric value; ng/mL need not be written.

stdin: Fill in the blank: the reported concentration at 1.25 h of C[C@H]1Oc2ccc(F)cc2N(CCO)C(=O)[C@H]1NC(=O)[C@@](C)(O)C(=O)NCC(F)(F)C(F)(F)F [Compound 8] is ____.
stdout: 198

---

Some compounds, each annotated with its measured concentration at 4 h.
Experiment: Pharmacokinetic assessment in C57BL/6 healthy wild-type mice (i.p.)
Type: in vivo, mouse
Details: male, mouse, liver, ip; C57BL/6 mice, 10 mg/kg i.p., 4 h; read-out: Liver concentration of administered compound
Structures can show the parent of a compound that is named as a salt.
Hi! Could you send only the number? It should be in ng/g, unit omitted.

INSERT INTO results (compound, quantitative_result) VALUES
  ('C[C@H]1Oc2ccc(F)cc2N(CCOC(=O)NCCN)C(=O)[C@H]1NC(=O)[C@@](C)(O)C(=O)NCC(F)(F)C(F)(F)F.Cl [Compound 11a, hydrochloride]', 3000),
  ('CC(=O)N[C@@H](CCC(=O)NCCNC(=O)OCCN1C(=O)[C@@H](NC(=O)[C@@](C)(O)C(=O)NCC(F)(F)C(F)(F)F)[C@@H](C)Oc2ccc(F)cc21)C(=O)O [Compound 13a]', 625),
  ('C[C@H]1Oc2ccc(F)cc2N(CCOC(=O)NCCNC(=O)[C@@H](N)CCC(=O)O)C(=O)[C@H]1NC(=O)[C@@](C)(O)C(=O)NCC(F)(F)C(F)(F)F [Compound 15b, hydrochloride]', 60.7);

stdin: Item CC(=O)N[C@@H](CCC(=O)O)C(=O)NCCNC(=O)OCCN1C(=O)[C@@H](NC(=O)[C@@](C)(O)C(=O)NCC(F)(F)C(F)(F)F)[C@@H](C)Oc2ccc(F)cc21 [Compound 15a] has what recorded concentration at 4 h?
stdout: 2850

---

Assay: Pharmacokinetic assessment in male Wistar rats (i.v.)
Assay type: in vivo, rat
Settings: rat, plasma, iv, 8 3.5 mg/kg i.v., 2.2 h, read-out: Plasma concentration of 8
Test Readout: concentration at 2.2 h (ng/mL)
All answers are understood in ng/mL, so give the number only.

stdin: Quick one: concentration at 2.2 h of C[C@H]1Oc2ccc(F)cc2N(CCO)C(=O)[C@H]1NC(=O)[C@@](C)(O)C(=O)NCC(F)(F)C(F)(F)F ?
stdout: 39.7

---

Experiment: Pharmacokinetic assessment in male Wistar rats (i.v.)
Assay type: in vivo, rat
Details: rat, kidney, iv, 13a 1.6 mg/kg i.v., 0.25 h, read-out: Kidney concentration of 13a
Test Readout: concentration at 0.25 h (ng/g)
Record the value in ng/g, omitting the unit from your answer.

stdin: Look up concentration at 0.25 h: CC(=O)N[C@@H](CCC(=O)NCCNC(=O)OCCN1C(=O)[C@@H](NC(=O)[C@@](C)(O)C(=O)NCC(F)(F)C(F)(F)F)[C@@H](C)Oc2ccc(F)cc21)C(=O)O [Compound 13a]
stdout: 188
